Give pEC50 for every item shown.
Tested on: hepatitis C replicon
Assay: hepatitis C replicon EC50
Type: cell-based
Details: Hepatitis C virus; Table 2; hepatitis C replicon; read-out: EC50
pEC50: −log10 of the molar value.

Lab note: measured pEC50 of CC1(S(=O)(=O)NC(=O)[C@@]23C[C@H]2/C=C\CCCCC[C@H](Nc2cc(F)cc(C(F)(F)F)c2)C(=O)N2C[C@H](Oc4nc(-c5ccccc5)cs4)C[C@H]2C(=O)N3)CC1 was < 6.30

Lab note: measured pEC50 of COc1ccc2c(O[C@@H]3C[C@H]4C(=O)N[C@]5(C(=O)NS(=O)(=O)C6CC6)C[C@H]5/C=C\CCCCC[C@H](Nc5cccc(C(F)(F)F)c5)C(=O)N4C3)cc(-c3nc(C(C)C)cs3)nc2c1C was > 8.00

Lab note: measured pEC50 of COc1ccc2c(O[C@@H]3C[C@H]4C(=O)N[C@]5(C(=O)NS(=O)(=O)N(C)C)C[C@H]5/C=C\CCCCC[C@H](Nc5cccc(F)c5)C(=O)N4C3)cc(-c3nc(C(C)C)cs3)nc2c1C was > 8.00

Lab note: measured pEC50 of CC1(S(=O)(=O)NC(=O)[C@@]23C[C@H]2/C=C\CCCCC[C@H](Nc2ccccc2F)C(=O)N2C[C@H](Oc4nc5ccccc5s4)C[C@H]2C(=O)N3)CC1 was 6.30 to 7.12

Lab note: measured pEC50 of CC1(S(=O)(=O)NC(=O)[C@@]23C[C@H]2/C=C\CCCCC[C@H](Nc2ccc4ccccc4c2)C(=O)N2C[C@H](Oc4nc5ccccc5s4)C[C@H]2C(=O)N3)CC1 was 6.30 to 7.12

Lab note: measured pEC50 of CC(C)n1c(O[C@@H]2C[C@H]3C(=O)N[C@]4(C(=O)NS(=O)(=O)C5(C)CC5)C[C@H]4/C=C\CCCCC[C@H](Nc4ccccc4)C(=O)N3C2)nc2cc(F)ccc21 was > 8.00

Lab note: measured pEC50 of COc1ccc2c(O[C@@H]3C[C@H]4C(=O)N[C@]5(C(=O)NS(=O)(=O)C6(C)CC6)C[C@H]5/C=C\CCCCC[C@H](Nc5ccccc5C)C(=O)N4C3)cc(-c3nc(C(C)C)cs3)nc2c1C was 7.12 to 8.00

Lab note: measured pEC50 of O=C1N[C@]2(C(=O)O)C[C@H]2/C=C\CCCCC[C@H](Nc2ccc(Cl)c(Cl)c2)C(=O)N2C[C@H](Oc3nc4ccccc4s3)C[C@@H]12 was < 6.30

Lab note: measured pEC50 of CC1(S(=O)(=O)NC(=O)[C@@]23C[C@H]2/C=C\CCCCC[C@H](Nc2cccc(Cl)c2)C(=O)N2C[C@H](Oc4nc5ccccc5s4)C[C@H]2C(=O)N3)CC1 was 6.30 to 7.12

Lab note: measured pEC50 of COc1ccc2c(O[C@@H]3C[C@H]4C(=O)N[C@]5(C(=O)NS(=O)(=O)C6(C)CC6)C[C@H]5/C=C\CCCCC[C@H](Nc5cccc(NC(C)=O)c5)C(=O)N4C3)cc(-c3nc(C(C)C)cs3)nc2c1C was > 8.00

Lab note: measured pEC50 of CC(C)n1c(O[C@@H]2C[C@H]3C(=O)N[C@]4(C(=O)NS(=O)(=O)C5(C)CC5)C[C@H]4/C=C\CCCCC[C@H](Nc4ccccc4)C(=O)N3C2)nc2ccc(F)cc21 was 7.12 to 8.00

Lab note: measured pEC50 of COc1ccc2c(O[C@@H]3C[C@H]4C(=O)N[C@]5(C(=O)NS(=O)(=O)C6(C)CC6)C[C@H]5/C=C\CCCCC[C@H](Nc5cccc(F)c5)C(=O)N4C3)cc(-c3nc(C(C)C)cs3)nc2c1C was > 8.00

Lab note: measured pEC50 of Cc1ccc2nc(O[C@@H]3C[C@H]4C(=O)N[C@]5(C(=O)NS(=O)(=O)C6(C)CC6)C[C@H]5/C=C\CCCCC[C@H](Nc5cccc(C(F)(F)F)c5)C(=O)N4C3)sc2c1 was 6.30 to 7.12

Lab note: measured pEC50 of COc1ccc2c(O[C@@H]3C[C@H]4C(=O)N[C@]5(C(=O)NS(=O)(=O)N(C)C)C[C@H]5/C=C\CCCCC[C@H](Nc5ccc(C(F)(F)F)cc5)C(=O)N4C3)cc(-c3nc(C(C)C)cs3)nc2c1C was 7.12 to 8.00

Lab note: measured pEC50 of COc1ccc2c(O[C@@H]3C[C@H]4C(=O)N[C@]5(C(=O)NS(=O)(=O)C6(C)CC6)C[C@H]5/C=C\CCCCC[C@H](Nc5cccc(C#N)c5)C(=O)N4C3)cc(-c3nc(C(C)C)cs3)nc2c1C was > 8.00

Lab note: measured pEC50 of CCn1c(O[C@@H]2C[C@H]3C(=O)N[C@]4(C(=O)NS(=O)(=O)C5(C)CC5)C[C@H]4/C=C\CCCCC[C@H](Nc4cc(F)cc(C(F)(F)F)c4)C(=O)N3C2)nc2ccccc21 was > 8.00
